- Test system: OVCAR-3 ovarian
- assayMethodText: NCI tumour cell line growth inhibition, 48 h
experimentalReadout: TGI

Worked cases, TGI given:
> print(dat)
                                   compound  observed
1  O=c1oc2ccccc2c(O)c1C(C/C(CCN1CCCC1)=N\Nc1ccccc1)c1ccccc1 (stereo not drawn)  > 100 µM
2          CN(C)CCCn1c(-c2nonc2N)nc2cnccc21   > 25 µM

Now for a further compound.
Request: Return the recorded TGI value; entry: CCCCCCCCCCC(C)CCCCCCC(=O)O (stereo not drawn)
Result: > 100 µM

* * *

- System: EKVX NSCLC
- assayMethodText: NCI tumour cell line growth inhibition, 48 h
experimentalReadout: TGI

Look up TGI for the entries below, preserving their order.
1. CCOC(=O)C(NC(=O)OC(C)(C)C)C(=O)OCC
2. O=C1CC2CCC(C1)S2=O (configuration not stated)
3. CN(C)C(=O)Oc1c(-c2ccccc2)c(=O)n2c3ccccc3n3c(=O)n(C)c(=O)c1c23
4. Cc1cc(C(=O)c2ccccc2)c(C)c2c1[nH]c1ccc(Cl)cc12
5. CCN(CC)c1ccc(/C=C/C=C2\NC(=O)NC2=O)cc1
6. CC(C)=CCCC(C)C1=C(O)C(=O)C(C)=CC1=O (configuration not stated)
7. CC(=O)c1c2n(n(-c3ccccc3)c1=O)C(=O)c1nccnc1-2

Result:
> 100 µM
> 100 µM
> 100 µM
> 100 µM
> 100 µM
> 49.8 µM
> 100 µM

* * *

- Tested on: RXF 393 renal
- assayMethodText: NCI tumour cell line growth inhibition, 48 h
Please go through the items and note down their TGI.

Worked cases, TGI given:
> print(dat)
                                   molecule  observed
1  NC1CC=C(COC(=O)C(O)(c2ccccc2)C2CC2)CC1 (stereo unspecified)  > 100 µM
2                            NCCCNCCCCN1CC1   7.83 µM

Look up TGI for the entries below, preserving their order.
1. CN(C)CCCNCc1cccc2ccccc12
2. OC1C[C@H](c2ccccc2)C2(C(O)c3ccccc3C2O)[C@@H](c2ccccc2)C1 (stereo partly specified)
3. CC1(C)CCc2c(c(N=Nc3ccc(F)cc3)c3ccccc3c2O)O1

Result:
1. > 100 µM
2. > 100 µM
3. > 100 µM

Request: Return the recorded TGI value; entry: Nc1c(C(=O)Nc2cccc(Cl)c2Cl)sc2nc3c(cc12)C(=O)CCC3
Result: > 100 µM

* * *

- System: T-47D breast
- assayMethodText: NCI tumour cell line growth inhibition, 48 h; in the data active = GI50 below about 0.43 µM; inactive = the rest
Your reply should match one of these outcome classes. true (1) = active, false (0) = inactive

Would you please look over these solved cases?
> print(dat)
                                   compound   assaytarget  labelclass
1  Cc1ccc(-c2cc(O)c(-c3ccc(C)cc3C)cc2O)c(C)c1  T-47D breast   false (0)
2  C=CC(COC(c1ccccc1)(c1ccccc1)c1ccccc1)N(CC)CC (stereo not drawn)  T-47D breast   false (0)
3          CN(C)CCCn1c(-c2nonc2N)nc2cnccc21  T-47D breast   false (0)
4  CC(C)(C)c1ccc(NS(=O)(=O)c2ccc3nc(NC(=O)c4cnccn4)[nH]c3c2)cc1  T-47D breast   false (0)
5  COc1ccc(Cn2cc3c(c2-c2cc(OC)c(OC)c(OC)c2)CCc2cnoc2-3)cc1  T-47D breast   false (0)

--- query ---
Request: Look up the recorded call for CC(=O)c1nc2ccccc2n1CC(=O)c1cccc(Cl)c1 in this test.
Result: false (0)

* * *

Please go through the items and note down their TGI.
- System: K-562 leukemia
- assayMethodText: NCI tumour cell line growth inhibition, 48 h

> print(dat)
                                   compound  experimentalreadout  observed
1  CC(C)(C)CC(C)(C)c1ccc(O)c(C[N+](C)(C)[O-])c1                  TGI  > 100 µM
2      CCN(Cc1c(Cl)cccc1Cl)c1ccc(CO)c(Cl)c1                  TGI   10.6 µM
3  Cc1cn(S(=O)(=O)c2ccccc2)c2c(OCc3ccccc3)cc(NS(C)(=O)=O)cc12                  TGI  > 100 µM
4     COc1cccc2c1n([O-])c1cccc(OC)c1[n+]2=O                  TGI  > 100 µM
5        Cc1cc(I)cc(CN(C)CCCN2CCN(C)CC2)c1O                  TGI   40.1 µM

Look up TGI for the entries below, preserving their order.
1. Cc1ccc(N=C2C(=Nc3ccc(C)cc3)N(c3ccc(C)cc3)C(=S)N2C(=O)c2ccccc2)cc1
2. Oc1ccc(Cc2cc(Cl)cc(Cl)c2O)cc1Cl
3. CN1C/C(=C\C=C\c2ccccc2)C(=O)/C(=C/C=C/c2ccccc2)C1
4. Nc1ncc(-c2cccc(S(N)(=O)=O)c2)c2scc(-c3ccc(F)c(Cl)c3)c12
5. O=C1C(Cl)=C(Nc2cccc(C(F)(F)F)c2)C(=O)N1Cc1ccc(Cl)cc1
6. Cc1cc(S(=O)(=O)/N=C(/NN)NNc2cccc(C(F)(F)F)n2)c(S)cc1Cl
7. COC(=O)C1=C(C(=O)OC)SC2(S1)C(C(=O)OC)=C(C(=O)OC)Sc1c2ssc1=NC(C)(C)C
8. O=[N+]([O-])c1cccc2nccc(NCCCO)c12

Result:
1: > 100 µM; 2: 37.6 µM; 3: > 100 µM; 4: > 11.7 µM; 5: > 100 µM; 6: 82.6 µM; 7: 9.66 µM; 8: 49.3 µM

Look up TGI for the entries below, preserving their order.
1. O=C1c2ccccc2C(=O)c2[nH]c(Cc3ccc(F)cc3)nc21
2. O=C(/C=C\c1cccc2ccccc12)c1cccc2ccccc12
3. COC(=O)c1nn(C(=N)c2ccc(Cl)cc2)c2c1CCC2
4. C[C@@H]1COCCN1c1cc(C2(O)C[C@H]3CC[C@@H](C2)O3)c2cnn(-c3ccn[nH]3)c2n1 (stereo partly specified)
5. C=CC(C)(C)C(=C)C(=O)Nc1ccccc1I
6. CCOc1ccc2c(c1)c(=O)c1c(NCCN(CC)CC)ccc3nnn2c31
7. O=c1oc2c(C(F)(F)F)cccc2cc1-c1csc(Nc2ccc(OCCF)cc2)n1

Result:
["> 100 µM", "18.6 µM", "> 100 µM", "> 100 µM", "> 100 µM", "> 66.2 µM", "> 100 µM"]

Request: Return the recorded TGI value; entry: COc1c(B(O)O)cc(F)cc1-c1nc2ccc3[nH]ncc3c2c2c1CCCC2
Result: > 100 µM

* * *

- System: UACC-62 melanoma
- assayMethodText: NCI tumour cell line growth inhibition, 48 h
experimentalReadout: TGI

> print(dat)
                                   molecule  observed
1  O=C(NC(=O)c1ccccc1[N+](=O)[O-])Nc1ccc(Oc2ncc(Cl)cn2)c(C(F)(F)F)c1  > 100 µM

Look up TGI for the entries below, preserving their order.
1. O=C(CCC(=O)C1CCC/C1=N/O)Nc1ccc(Cl)cc1 (centres undefined)
2. Cc1ccc(NC(=O)CSC(N)=O)cc1C
3. Cc1ccc(-n2cc([Si](C)(C)C)nn2)s1
4. COC(=O)c1nn(C(=N)c2ccc(Cl)cc2)c2c1CCC2
5. O=c1oc2c(C(F)(F)F)cccc2cc1-c1csc(Nc2ccc(OCCF)cc2)n1

Result:
1. > 100 µM
2. > 100 µM
3. > 100 µM
4. > 100 µM
5. > 38.9 µM

* * *

- System: NCI-H23 lung
- assayMethodText: NCI tumour cell line growth inhibition, 48 h
experimentalReadout: TGI

Worked cases, TGI given:
> print(dat)
                                   compound  experimentalreadout  observed
1  CC(=O)[CH-]C(=O)c1ccccc1.CC(=O)[CH-]C(=O)c1ccccc1.CC[O-].O=C1c2ccccc2C(=O)c2c1ccc(O)c2[O-].[Ti+4]                  TGI  > 100 µM
2          CN(C)CCCn1c(-c2nonc2N)nc2cnccc21                  TGI   > 25 µM
3  CN(Cc1cc(Cl)c(Cl)cc1NC(=O)CN)[C@H]1CCCC[C@@H]1N1CCCC1                  TGI  > 100 µM

Look up TGI for the entries below, preserving their order.
1. CC(=O)[O-].O=C([CH-]C(=O)c1ccccc1)c1ccccc1.O=C([CH-]C(=O)c1ccccc1)c1ccccc1.[Sm+3]
2. Oc1c(CN2CCN(c3ccccc3)CC2)cc(Br)c2cccnc12
3. C[C@@H]1COCCN1c1cc(C2(O)C[C@H]3CC[C@@H](C2)O3)c2cnn(-c3ccn[nH]3)c2n1 (stereo partly drawn)
4. CC(=C/c1ccccc1)/C=C1/NC(=S)N(/C=C2\C(=O)Oc3ccccc3C2=O)C1=O
5. CC(=O)c1cc(O)c2ccccc2c1O

Result:
1. 15.5 µM
2. > 100 µM
3. 0.188 µM
4. > 100 µM
5. 53.7 µM
